test: Pharmacokinetics IV/PO in mice; format: in vivo, ICR mice; details: ICR, plasma; mouse IV 2.1 mg/kg
result-type: Vd
Include the unit right after the number.

Input: Please report the measured Vd for `COc1ccc2cc(C=Cc3ccc(N(C)C)cc3)oc2c1`
Output: 32.1 L/kg

###

assay: Pharmacokinetics IV/PO in monkeys; format: in vivo, cynomolgus monkeys; settings: cynomolgus monkey, plasma; monkey IV 0.77 mg/kg
result-type: half-life (h)
# unit: h | format: bare number

Input: Read the entry COc1ccc2cc(C=Cc3ccc(N(C)C)cc3)oc2c1 [KMS88009] and write its reported half-life.
Output: 5.8

###

assay: Plasma and brain pharmacokinetics (BBB penetration) after PO in mice; format: in vivo; settings: ICR, mouse; plasma, mice PO 10 mg/kg
result-type: Cmax (ng/mL)
Give the value, in units of ng/mL, as a plain number.

Input: Look up Cmax of `COc1ccc2cc(C=Cc3ccc(N(C)C)cc3)oc2c1` and report it.
Output: 744
